B1: Hairpin Ribozyme (parent)
chain: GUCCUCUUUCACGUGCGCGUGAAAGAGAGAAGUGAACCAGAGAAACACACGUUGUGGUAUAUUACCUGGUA

- Variants of: B1
- test details: self-cleavage, relative activity (ratio to wild type); higher = more cleavage; co-transcriptional
Rule: self-cleavage under 0.2 gives f, otherwise t.

sequence chain	class label
UUCCUCUUUCACGUGCGCGUGAAAGAGAGAAGUGAACCUGAGAAACACACGUUGUGGUAUAUUACCUGGUA	f
GUCCUCUUACACGUGCGCGUGAAAGAGAGAAGUGAACCAGAGAACCACACGUUGUGGUAUAUUACCUGGUA	f
GUCGUCUUUCACGUGCGCGAGAAAGAGAGAAGUGAACCAGAGAAACACACGUUGUGGUAUAUUACCUGGUA	t
GUCCUCUUUCACGUGCGCUUGAAAGAGAGAAGUGAACCAGAGAAACACACGUUGUGGUAUUUUACCUGGUA	f
GUCGUCUUUCACGUGCGCGUGAAAGAGAGAAGUGAACCAGAGAAACACACGUUGUGGUAUAUUACCUCGUA	f
GUCCUCUUACACGUGCGCGUGAAAGAGAGAAGAGAACCAGAGAAACACACGUUGUGGUAUAUUACCUGGUA	f
GUCCUCUUUCACGUGCGCGUGAAAGAGUGAAGUGAACCAGAGAAACACACGUUGUGGUAUAUUACCUCGUA	f
GUCCUCUUUCACGUGCGCGUUAAAGAGAGAAGUGAACCAGAGAAACACACGUUGUGGUAUAUUACCUGGCA	t
GUCCUCAUCCACGUGCGCGUGAAAGAGAGAAGUGAACCAGAGAAACACACGUUGUGGUAUAUUACCUGGUA	t
GUCCUCUUUCACGUGCGCGUGAAAGAGAGAAGUGAAACAGAGAAACACACUUUGUGGUAUAUUACCUGGUA	t
GUACUCUUUCACGUGCGCGUGAAAGAGAGAAGUGAACCAGAGAAACACACGUUGUGGUAUAUUACCUCGUA	t
GUCCUCUUUCACGUCCGCGUGAAAGAGAGAAGUAAACCAGAGAAACACACGUUGUGGUAUAUUACCUGGUA	t
GUCCUCUUUCACGUGCGCGUGAAAGAGAGAAGUGAACCAGAGAAAUACACGUUGUGGUAUAUUACCUUGUA	f
GUCCUCUUUCACGUGCGCGUGAAAGAGAGAAGUAAACCAGAGAAACACACGUUGUGGUAUAUUACCUGGCA	t
GUCCUCUUUGACGUGCGCGUGAAAGAGAGAAGUGAACCAGAGAAACACACGUUGUGCUAUAUUACCUGGUA	f
UUCCUCUUUCACGUGCGCGUGAAAGAGAGAAGUGAACCAGAGAAACACACGUUGUGGGAUAUUACCUGGUA	t
GUCCUCUUUCACGUGCGCGUGAAAGAGAGAAGUGAACCAGAGAAACACCCGUUGUGGCAUAUUACCUGGUA	t
GUCCUCUUUCACGUGCGCGUCAAAGAGAGAAGUGAACCAGAGAAACACACGUUGUGGUACAUUACCUGGUA	t
GUCCUCUUUCACGUGCGCGUGAAAGAGAGAGGUGAACCAGAGAAACACAGGUUGUGGUAUAUUACCUGGUA	f
GUCGUCUUUCACGUGCGCGUGAAAGAGAGAAGUGAACCAGAGAAACACACGUUGUGGUAUAUUAGCUGGUA	f
GUCCUCUUUCACGUGCCCGUGAAAGAGAGAAGUGAACCAGAGAAACACACGUUGUGGUAUAUUACCUGAUA	t
GUCCUCUUUCACGUGCGCGUGAAAGAGAGAAGAGAACCAGAGAAACACACGUUGUGGUAUACUACCUGGUA	f
GUACUCUUUCACGUGGGCGUGAAAGAGAGAAGUGAACCAGAGAAACACACGUUGUGGUAUAUUACCUGGUA	t
GUCCUCUUUCACGUGCGCGUGAAAGACAGAAGUGAACCAGAGAAACAGACGUUGUGGUAUAUUACCUGGUA	f
GUCCUCUUUCACGUGCGCGUGAAAGAGAGAAGUGAACCAGAGGAACACACGGUGUGGUAUAUUACCUGGUA	f
GACCUCUUUCACGUGCGCGUGAAAGAGAGAAGUGAACCAGAGAAACACACGUUAUGGUAUAUUACCUGGUA	f
GUCCUCUUUCACGUGCGCGCGAAAGAGAGAAGUGAACCAGAGAAACACACGUUGUGGUAUAUUACCUCGUA	t
GCCCUCUUUCACGUGCGCGUGAAAGAGAGAAGUGAACCAGAGAAACACACGUUGUGGUUUAUUACCUGGUA	f
GUCCUCUUUCACGUGCGCGUGAAAGAGCGAAGUGAACCAGAGAAACACACGUUGUGGUAUUUUACCUGGUA	t
UUCCUCUUUCACGUGCGCGUGAAAGAGAGAAGUGAACCAGAGAAACACACGUUGUGGUAUAUUCCCUGGUA	f
GUCCUCUUUCACGUGCGCGUGAAAGAGAGAAGUGUACCAGAGAAGCACACGUUGUGGUAUAUUACCUGGUA	f
GUCCUCUUUCACGUGCGCGUGAAAGAGAGAAGUGAACCAUAGAAACACACCUUGUGGUAUAUUACCUGGUA	f
UUCCUCUUUCACGUGCGCGUGAAAGAGAGAAGUGAACCAGAAAAACACACGUUGUGGUAUAUUACCUGGUA	f
GUCCUCUUUCACGUGCGCGUGAAAGAGAGAAUUGAACCAGAGAAACACACGUUGUGGUAUAUUACCUGAUA	f
GUCCUCUUUCACGUGCGCGUGAAAGAGAGAAGUGAACCAGAGAAACACACGUUGUGGUAUAUUAAGUGGUA	f
GUCCUCUUUCACGUGCGCGUGAAAUAGAGAAGUGAACCAGAGAAACACACGUUGUCGUAUAUUACCUGGUA	f
GUCCUCUUUCACGUGCGCGUGAAAGAGAGAAGUGAACCAGAGAAUCACACGAUGUGGUAUAUUACCUGGUA	f
GUCCUCUUUCAUGUGCGCGUGAAAGACAGAAGUGAACCAGAGAAACACACGUUGUGGUAUAUUACCUGGUA	f
GUCCUCUUUCACGUACGCGUGAAAGAGAGAAGUGAACCAGAGAAACACACGUUGCGGUAUAUUACCUGGUA	t
GUCCUCUUUCACGUGCGCGUGAAAGAGAGAAGUGAACCCGAGAAACACACGAUGUGGUAUAUUACCUGGUA	t
UUCCUCUUUCACGUGCGCGUGAAAGAGAGAAGUGAACCAGAGAAACACACGUCGUGGUAUAUUACCUGGUA	f
GUCCUCUUUCACGUGCGCGUGAAAGAGAGAAGUGACCCAGAGAAACACACGUUGUGGUAUAUUACCUGGUC	t
GUCCUCUUUCACGUGCGCGUGAAAGAGAGUAGUGAACCAGAGAAACAGACGUUGUGGUAUAUUACCUGGUA	f
GUCCUCUUUCACGUGCGCGUGAAAGAUAGAAGUGAACCAGAGAAACACACGUUGUGGUAUAAUACCUGGUA	f
